assay: Body weight of the mice, carboplatin combination study; assay type: in vivo; details: Day 11 (before treatment)

molecule | Mean body weight of the mice
N.N.O=C([O-])C1(C(=O)[O-])CCC1.[Pt+2] [carboplatin, reference compound] | 23.5 g

====

assay: Body weight of the mice, carboplatin combination study; type: in vivo; details: Day 39
attribute_measured: Mean body weight of the mice

molecule | attribute_measured | val
N.N.O=C([O-])C1(C(=O)[O-])CCC1.[Pt+2] [carboplatin, reference compound] | Mean body weight of the mice | 23.6 g

====

test: Body weight of the mice, carboplatin combination study; assay type: in vivo; conditions: Day 25

compound | unit_descriptor | Mean body weight of the mice
N.N.O=C([O-])C1(C(=O)[O-])CCC1.[Pt+2] [carboplatin, reference compound] | g | 27.4
